TESTED_ON: hP2X7 (Homo sapiens)
Construct: expressed in transfected cells; host or cells: 1321N1 astrocytoma cells
PROTOCOL_SUMMARY: P2X7 antagonism: ligand-induced Ca2+ flux in 1321N1 astrocytoma cells overexpressing hP2X7
Format: cell-based
REPORTED_CONDITIONS: pIC50 = -log(IC50), read-out: hP2RX7pIC50 (mean pIC50 values) (converted)
Protocol: Extracellular binding of ATP to P2X7 that is expressed in the cell-membrane opens the ligand gated cation channel and allows Ca^2+ entry into the cell. This ligand-induced Ca^2+ flux was measured in 1321N1 astrocytoma cells overexpressing hP2X7 for the compounds of the present invention. […] The fluorescence, and thus the changes in intracellular [Ca^2+] in the 1321N1 cells was monitored in time before and after addition of the agonist. […]
For each record, write down the corresponding IC50.
Numbers only, in nM.

// solved cases for IC50 follow
CCOc1ncc(C(CNC(=O)c2cccc3nc(NC4CC4)ccc23)N2CCOCC2)cn1 (stereo not shown)
69.2
CCOc1ncc(C(CNC(=O)c2cccc3nc(N4CCOCC4)ccc23)N2CCC(F)(F)CC2)cn1 (stereo not shown)
36.3
O=C(NCC(c1cnc(-c2ccccc2)nc1)N1CCC(F)(F)CC1)c1cccc2nc(NC3CC3)ccc12 (stereo not shown)
61.7
O=C(NCC(c1cnc(C(F)(F)F)nc1)N1CCCCCC1)c1cccc2nc(N3CCNCC3)ccc12 (stereo not shown)
22.4
CC(C)Oc1ncc(C(CNC(=O)c2cccc3nc(N4CCCC4)ccc23)N2CCOCC2)cn1 (stereo not shown)
67.6
O=C(NCC(c1cnc(C(F)(F)F)nc1)N1CCCOCC1)c1cccc2nc(NCCCO)ccc12 (stereo not shown)
87.1

Now turn to the next compound.
Find IC50 (hP2X7 (Homo sapiens)) for the entry COCCN1CCN(c2ccc3c(C(=O)NCC(c4cnc(C(F)(F)F)nc4)N4CCOCC4)cccc3n2)CC1 (stereo not shown)
75.9

----------
For each record, write down the corresponding melting point.
One number for each entry, in °C.

// solved cases for melting point follow
Cc1ncc(C(CNC(=O)c2cccc3nc(N4CCOCC4)ccc23)N2CCC(F)(F)CC2)cn1 (stereo not shown) [Compound 96]
160
O=C(NCC(c1cnc(C(F)(F)F)nc1)N1CCC(F)(F)CC1)c1cccc2ncccc12 (single isomer, unassigned) [Compound 46]
217.7
O=C(NCC(c1cnc(C(F)(F)F)nc1)N1CCC(F)(F)CC1)c1cccc2nc(NCCO)ccc12 (stereo not shown) [Compound 39]
125.3
O=C(NCC(c1cnc(C(F)(F)F)nc1)N1CCC(F)(F)CC1)c1cccc2nc(O)ccc12 (stereo not shown) [Compound 77]
206.9
O=C(NCC(c1cnc(C(F)(F)F)nc1)N1CCCCC1)c1cccc2ncccc12 (stereo not shown) [Compound 35]
183.6

Now turn to the next molecule.
Would you kindly share the measured melting point for CC(C)N1CCN(c2ccc3c(C(=O)NCC(c4cnc(C(F)(F)F)nc4)N4CCC(F)(F)CC4)cccc3n2)CC1 (stereo not shown) [Compound 134] ?
236.3

----------
TESTED_ON: hP2X7 (Homo sapiens, UniProt Q99572)
Construct: expressed in transfected cells; host or cells: 1321N1 astrocytoma cells
Sequence (Q99572 1-595): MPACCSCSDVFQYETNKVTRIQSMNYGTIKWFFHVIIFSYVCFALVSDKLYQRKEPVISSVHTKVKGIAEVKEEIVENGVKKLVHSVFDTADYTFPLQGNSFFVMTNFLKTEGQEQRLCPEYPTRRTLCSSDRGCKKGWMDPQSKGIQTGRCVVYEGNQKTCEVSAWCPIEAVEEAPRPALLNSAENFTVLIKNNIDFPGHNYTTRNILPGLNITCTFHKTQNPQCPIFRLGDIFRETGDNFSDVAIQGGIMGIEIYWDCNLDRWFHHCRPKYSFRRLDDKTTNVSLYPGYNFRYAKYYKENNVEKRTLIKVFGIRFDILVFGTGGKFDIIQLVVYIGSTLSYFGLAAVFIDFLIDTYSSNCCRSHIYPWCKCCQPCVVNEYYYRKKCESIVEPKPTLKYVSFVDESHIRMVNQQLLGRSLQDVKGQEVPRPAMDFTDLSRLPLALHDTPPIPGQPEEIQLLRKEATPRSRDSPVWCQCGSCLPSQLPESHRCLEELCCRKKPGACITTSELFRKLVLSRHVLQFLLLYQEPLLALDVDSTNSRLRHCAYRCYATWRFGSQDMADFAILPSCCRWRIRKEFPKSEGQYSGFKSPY
PROTOCOL_SUMMARY: P2X7 antagonism: ligand-induced Ca2+ flux in 1321N1 astrocytoma cells overexpressing hP2X7
Assay type: cell-based
REPORTED_CONDITIONS: pIC50 = -log(IC50), read-out: hP2RX7pIC50 (mean pIC50 values) (converted)
ASSAY_METRIC: IC50 (nM)
Numbers only, in nM.

CC(C)c1ncc(C(CNC(=O)c2cccc3nc(NC4CC4)ccc23)N2CCC(F)(F)CC2)cn1 (stereo not shown)
37.2
CC(C)c1ncc(C(CNC(=O)c2cccc3nc(N4CCOCC4)ccc23)N2CCC(F)(F)CC2)cn1 (stereo not shown)
64.6

Give IC50 for each of the items listed below.
1. CC(C)c1ncc(C(CNC(=O)c2cccc3nc(NCC4CC4)ccc23)N2CCOCC2)cn1 (stereo not shown)
2. CC(C)N1CCN(c2ccc3c(C(=O)NCC(c4cnc(N(C)C)nc4)N4CCC(F)(F)CC4)cccc3n2)CC1 (stereo not shown)

1. 79.4
2. 117

----------
TESTED_ON: hP2X7 (Homo sapiens)
Construct: expressed in transfected cells; host or cells: 1321N1 astrocytoma cells
PROTOCOL_SUMMARY: P2X7 antagonism: ligand-induced Ca2+ flux in 1321N1 astrocytoma cells overexpressing hP2X7
Assay type: cell-based
REPORTED_CONDITIONS: pIC50 = -log(IC50), read-out: hP2RX7pIC50 (mean pIC50 values) (converted)
Please respond with MET when measured IC50 is strictly beneath 90 nM, and with NOT MET in all other cases.

Solved cases below.
O=C(NCC(c1cnc(C(F)(F)F)nc1)N1CCOCC1)c1cccc2nc(N3CCC(F)(F)CC3)ccc12 (stereo not shown) [Compound 177]
MET
CC(C)N1CCN(c2ccc3c(C(=O)NCC(c4cnc(-c5ccccc5)nc4)N4CCC(F)(F)CC4)cccc3n2)CC1 (stereo not shown) [Compound 201]
NOT MET
O=C(NCC(c1cnc(N2CCCC2)nc1)N1CCC(F)(F)CC1)c1cccc2nc(NC3CC3)ccc12 (stereo not shown) [Compound 190]
MET
CC(=O)N1CCN(c2ncc(C(CNC(=O)c3cccc4nc(N5CCN(C(C)C)CC5)ccc34)N3CCC(F)(F)CC3)cn2)CC1 (stereo not shown) [Compound 309]
MET
CCc1ncc(C(CNC(=O)c2cccc3nc(N4CCCC4)ccc23)N2CCC(F)(F)CC2)cn1 (stereo not shown) [Compound 282]
MET

Lab log: compare recorded IC50 with 90 nM; is it strictly lower for CC(C)CN1CCN(c2ccc3c(C(=O)NCC(c4cnc(C(F)(F)F)nc4)N4CCOCC4)cccc3n2)CC1 (stereo not shown) [Compound 280] ?
NOT MET

----------
TESTED_ON: P2X7 (Homo sapiens, UniProt Q99572)
Construct: endogenous in cells; host or cells: THP-1 human monocytic cell line
PROTOCOL_SUMMARY: THP-1 YoPro uptake assay (BzATP-stimulated Yo-Pro-1 uptake)
Format: cell-based
REPORTED_CONDITIONS: Table F-10, THP-1 cells, read-out: mean pIC50 values for P2X7 antagonism (converted)
ASSAY_METRIC: log10(IC50) (log10 of the value in nM)
The base-10 logarithm of IC50, taken with IC50 in nM, is what appears here.

CNCCN(C)c1ccc2c(C(=O)NCC(c3cnc(C(F)(F)F)nc3)N3CCC(F)(F)CC3)c(Cl)ccc2n1 (centres unmarked)
0.93
CNc1ccc2c(C(=O)NCC(c3cnc(C(F)(F)F)nc3)N3CCC(F)(F)CC3)c(Cl)ccc2n1 (centres unmarked)
0.39

Give log10(IC50) for each of the items listed below.
1. O=C(NCC(c1cnc(C(F)(F)F)nc1)N1CCOCC1)c1c(Cl)ccc2nc(N3CC4CNCC4C3)ccc12 (centres unmarked)
2. CNc1ccc2c(C(=O)NCC(c3cnc(C(F)(F)F)nc3)N3CCOCC3)c(Cl)ccc2n1 (centres unmarked)

0.40
1.01

Give log10(IC50) for each of the items listed below.
1. O=C(NCC(c1cnc(C(F)(F)F)nc1)N1CCC(F)(F)CC1)c1c(Cl)ccc2nc(N3C[C@@H]4C[C@H]3CO4)ccc12 (some centres unmarked)
2. O=C(NCC(c1cnc(C(F)(F)F)nc1)N1CCOCC1)c1c(Cl)ccc2nc(N3CCC3)ccc12 (centres unmarked)
3. O=C(NCC(c1cnc(C(F)(F)F)nc1)N1CCC(F)(F)CC1)c1c(Cl)ccc2nc(NCC(O)CO)ccc12 (centres unmarked)
4. O=C(NCC(c1cnc(C(F)(F)F)nc1)N1CCOCC1)c1c(Cl)ccc2nc(N3C[C@@H]4C[C@H]3CO4)ccc12 (some centres unmarked)

1. 0.42
2. 0.24
3. 1.41
4. 1.75
